TARGET: T1, GFP-9S library array, motif 4 ND N98W;D124Q (synthetic construct, N98W;D124Q)
T1 chain: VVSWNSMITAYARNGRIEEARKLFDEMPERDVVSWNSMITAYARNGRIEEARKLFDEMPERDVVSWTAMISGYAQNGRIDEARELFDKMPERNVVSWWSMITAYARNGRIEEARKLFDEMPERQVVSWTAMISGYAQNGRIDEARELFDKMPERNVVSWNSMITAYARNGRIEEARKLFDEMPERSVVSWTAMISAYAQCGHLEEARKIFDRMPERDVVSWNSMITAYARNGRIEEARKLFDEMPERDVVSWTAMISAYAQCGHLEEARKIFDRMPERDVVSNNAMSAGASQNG
TEST SUMMARY: high-throughput RNA pulldown from lysate on Ni-NTA beads; HRP: 50 mM Tris pH 8, 150 mM NaCl, 1 mM beta-mercaptoethanol, 50 ug/ml BSA, 3 ug/ml yeast RNA, 0.5% heparin; ITC and FP: Tris pH 8, 200 mM KCl, 5% glycerol; MST: 50 mM Tris pH 8, 200 mM NaCl, 1 mM DTT, BSA, heparin, 0.05% Tween 20
CONDITION SUMMARY: tags: N-terminal His-eGFP; label: 5' IRDye 800CW
OUTCOME MEASURE: pKd
Reminder that pKd is minus the log10 of a molar concentration.

Ask | Which pKd is listed for AUUAUACGUGA (ssRNA) [IR-rpoA-U] ?
Reply | 6.71

Ask | Similarly, AUUAAACGUGA (ssRNA) [IR-rpoA-A] ?
Reply | 6.65
